Counter-ions that a name gives are not always drawn.
Consider compounds characterized by their pIC50 with PLA2 (Sus scrofa).
Sequence (P00592 23-146): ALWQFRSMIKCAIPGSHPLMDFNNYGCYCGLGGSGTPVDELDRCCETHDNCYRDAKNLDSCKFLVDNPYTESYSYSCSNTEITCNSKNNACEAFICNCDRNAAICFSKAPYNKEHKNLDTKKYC
Interpret pIC50 as the negative base-10 log of the concentration measured in mol/L.

QUERY: Consider the compound CCOC(=O)CCN(CCCOC)C(=O)/C(C)=C/c1ccc(C(=O)Oc2ccc(C(=N)N)cc2)cc1 [Example 1, hydrochloride] and give its recorded pIC50.
RESULT: 3.97

QUERY: Quickly give me recorded pIC50 for CCOC(=O)C(C(=O)OCC)N(CCCOC)C(=O)/C(C)=C/c1ccc(C(=O)Oc2ccc(C(=N)N)cc2)cc1 [1(b), acetate]
RESULT: 3.91

QUERY: Determine its reported pIC50: CCOC(=O)CN(CCCOC)C(=O)/C(C)=C/c1ccc(C(=O)Oc2ccc(C(=N)N)cc2)cc1 [Example 1(a), acetate]
RESULT: 3.97
